Species: Rattus norvegicus
Assay: Open TG-GATES - Regimen: Daily Repeat
Type: toxicity, organism-based, Sprague-Dawley
Parameters: regimen Daily Repeat, gender Male, age 6 weeks
Settings: in vivo, po, 300 mg/kg, […], tissue Plasma, route gavage, dose level Middle, time 14 day
property.name: ALT (IU/L)

>>> value_observed("CC(=O)[C@@]1(O)CC[C@H]2[C@@H]3C=C(Cl)C4=CC(=O)CC[C@]4(C)[C@H]3CC[C@@]21C")
44.2
>>> value_observed("O=C(O)c1ccccc1Nc1ccccc1")
36.8
>>> value_observed("CC(S)C(=O)NCC(=O)O (centres undefined)")
43.8
>>> value_observed("CCCCNC(=O)NS(=O)(=O)c1ccc(C)cc1 [TOLBUTAMIDE]")
41.4
